biological target: TEAD3 (Homo sapiens (Human)); experiment: TR-FRET lipid pocket probe competition assay (Lipid HTRF), TEAD3; format: binding; settings: 4 hours pre-incubation; read-out: Lipid HTRF TEAD3 IC50
Sequence (Q99594 whole entry, species assumed): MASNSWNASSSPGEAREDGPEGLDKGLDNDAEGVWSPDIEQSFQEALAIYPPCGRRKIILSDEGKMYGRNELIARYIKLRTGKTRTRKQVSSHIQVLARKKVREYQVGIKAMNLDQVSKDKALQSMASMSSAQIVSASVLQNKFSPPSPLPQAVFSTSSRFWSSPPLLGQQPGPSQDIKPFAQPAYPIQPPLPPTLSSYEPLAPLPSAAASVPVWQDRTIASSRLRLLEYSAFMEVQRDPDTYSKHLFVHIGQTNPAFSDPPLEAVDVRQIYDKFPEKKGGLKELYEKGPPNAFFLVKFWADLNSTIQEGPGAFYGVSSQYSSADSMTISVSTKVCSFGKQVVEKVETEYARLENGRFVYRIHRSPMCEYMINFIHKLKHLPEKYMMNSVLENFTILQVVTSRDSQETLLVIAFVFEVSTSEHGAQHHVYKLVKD
pIC50: −log10 of the molar value.
measurement_kind: pIC50

smiles_record | pIC50
C=C(F)C(=O)NCc1nn(-c2ccc(OC(F)(F)F)cc2)c2nccc(CO)c12 | 6.01
O=C(C1=CCOC1)N1CC(c2nn(-c3ccc(OC(F)(F)F)cc3)c3nccc(CO)c23)C1 | 5.92
C=C(C)S(=O)(=O)N1CC(c2nn(-c3ccc(OC(F)(F)F)cc3)c3nccc([C@@H](O)CO)c23)C1 | 5.92
